Data origin, for the record: paper PMC10786891

- assay.system: T1, EsCas13d, nuclease-dead (Eubacterium siraeum, UniProt B0MS50, R295A;H300A;R849A;H854A)
- T1 sequence: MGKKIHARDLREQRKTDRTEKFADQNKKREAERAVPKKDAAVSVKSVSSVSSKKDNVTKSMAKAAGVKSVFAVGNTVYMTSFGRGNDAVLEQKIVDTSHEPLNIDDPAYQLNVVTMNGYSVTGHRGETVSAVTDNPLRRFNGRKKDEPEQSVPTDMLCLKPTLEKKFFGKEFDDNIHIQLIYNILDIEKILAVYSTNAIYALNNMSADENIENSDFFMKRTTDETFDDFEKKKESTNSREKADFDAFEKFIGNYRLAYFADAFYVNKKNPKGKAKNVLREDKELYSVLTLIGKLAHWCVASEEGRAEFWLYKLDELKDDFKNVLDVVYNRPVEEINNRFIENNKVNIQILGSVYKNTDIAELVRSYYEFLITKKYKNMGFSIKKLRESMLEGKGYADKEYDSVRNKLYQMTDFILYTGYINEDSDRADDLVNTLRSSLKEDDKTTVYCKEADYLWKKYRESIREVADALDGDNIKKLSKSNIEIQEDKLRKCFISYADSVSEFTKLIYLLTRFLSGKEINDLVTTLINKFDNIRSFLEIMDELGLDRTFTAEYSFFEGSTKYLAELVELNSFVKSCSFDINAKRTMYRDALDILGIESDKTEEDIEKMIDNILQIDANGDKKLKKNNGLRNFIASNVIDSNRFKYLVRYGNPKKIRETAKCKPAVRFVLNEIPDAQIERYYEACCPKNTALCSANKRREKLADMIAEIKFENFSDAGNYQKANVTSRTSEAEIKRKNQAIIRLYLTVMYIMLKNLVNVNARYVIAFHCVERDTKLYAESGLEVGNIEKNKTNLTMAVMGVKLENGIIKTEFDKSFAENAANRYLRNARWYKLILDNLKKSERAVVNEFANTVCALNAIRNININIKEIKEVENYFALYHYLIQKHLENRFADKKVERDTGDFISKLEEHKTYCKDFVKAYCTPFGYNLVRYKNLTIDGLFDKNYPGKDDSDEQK
- experiment: crRNA (strand 1, pre-loaded); Mg2+; 40 mM Tris-HCl pH 7.5, 150 mM NaCl, 6 mM MgCl2, 1 mM DTT, 0.1% Tween-20, 0.2 mg/ml BSA; 25 C; 10 min per concentration, then washed
- run.parameters: tags: His6-TwinStrep-SUMO cleaved; N-terminal SNAP kept (SNAP-Surface 488); label: 3' end held by stalled T7 RNA polymerase
pKd: −log10 of the molar value.
The following binders are shown together with reported pKd values.
assay.metric: pKd

>>> numeric_readout("target 2 MT 5'PFS CGA 3'PFS UGC (mixed) RNA 1: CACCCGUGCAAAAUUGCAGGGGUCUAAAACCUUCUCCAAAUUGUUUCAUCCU RNA 2: GGGAAUGGAUCCACAUCUACGAAUUCCGAAGGAUGAAACAAUUUGGAGAAGUGCAGAUCGGAAGAGCACACGU")
8.17
>>> numeric_readout("target 1 insU 3' of 17,insA 3' of 5 (mixed) RNA 1: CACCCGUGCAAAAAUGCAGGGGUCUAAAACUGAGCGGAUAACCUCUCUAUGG RNA 2: GGGAAUGGAUCCACAUCUACGAAUUCGUACCAUAGUAGAGGUUAUCCGACUCACCGAGAUCGGAAGAGCACACGU")
7.72
>>> numeric_readout("target 1 insG 3' of 11,insU 3' of 5 (mixed) RNA 1: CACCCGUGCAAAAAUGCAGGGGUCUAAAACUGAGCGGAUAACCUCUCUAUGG RNA 2: GGGAAUGGAUCCACAUCUACGAAUUCGUACCAUAGAGAGGUGUAUCCGUCUCACCGAGAUCGGAAGAGCACACGU")
7.41
>>> numeric_readout("target 1 insC 3' of 3,insG 3' of 3 (mixed) RNA 1: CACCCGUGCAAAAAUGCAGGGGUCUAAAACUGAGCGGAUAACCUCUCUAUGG RNA 2: GGGAAUGGAUCCACAUCUACGAAUUCGUACCAUAGAGAGGUUAUCCGCUCGCACCGAGAUCGGAAGAGCACACGU")
8.07
>>> numeric_readout("target 2 MT 5'PFS UCU 3'PFS AUG (mixed) RNA 1: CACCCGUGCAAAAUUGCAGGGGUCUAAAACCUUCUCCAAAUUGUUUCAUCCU RNA 2: GGGAAUGGAUCCACAUCUACGAAUUCUCUAGGAUGAAACAAUUUGGAGAAGAUGAGAUCGGAAGAGCACACGU")
8.08
>>> numeric_readout("target 1 MT 5'PFS GUA 3'PFS CUC (mixed) RNA 1: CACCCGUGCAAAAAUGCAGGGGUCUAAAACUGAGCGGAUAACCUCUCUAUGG RNA 2: GGGAAUGGAUCCACAUCUACGAAUUCGUACCAUAGAGAGGUUAUCCGCUCACUCAGAUCGGAAGAGCACACGU")
7.86
>>> numeric_readout("target 2 MT 5'PFS AAG 3'PFS AUC (mixed) RNA 1: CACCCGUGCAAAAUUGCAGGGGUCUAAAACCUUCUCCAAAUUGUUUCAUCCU RNA 2: GGGAAUGGAUCCACAUCUACGAAUUCAAGAGGAUGAAACAAUUUGGAGAAGAUCAGAUCGGAAGAGCACACGU")
8.28
>>> numeric_readout("target 1 insU 3' of 20,insU 3' of 20 (mixed) RNA 1: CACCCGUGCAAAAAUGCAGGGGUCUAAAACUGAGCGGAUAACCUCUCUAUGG RNA 2: GGGAAUGGAUCCACAUCUACGAAUUCGUACCAUUUAGAGAGGUUAUCCGCUCACCGAGAUCGGAAGAGCACACGU")
7.87
